test system: 313798-341-R-J2-PDC spheroids, viability; assay: Anticancer human tumor 313798-341-R-J2-PDC patient-derived cervical squamous cell carcinoma cell line growth inhibition [PI3K]; conditions: second compound 0.1 µM; first compound 0.1 µM; stronger effect = lower value; spheroids with HUVEC and MSC
Each entry below carries its recorded viability, T/C.

molecule	viability, T/C / %
CC(=O)c1c(C)c2cnc(Nc3ccc(N4CCNCC4)cn3)nc2n(C2CCCC2)c1=O + Cc1nc(NC(=O)N2CCCC2C(N)=O)sc1-c1ccnc(C(C)(C)C(F)(F)F)c1	110
CC(C)NCC(C(=O)N1CCN(c2ncnc3c2C(C)CC3O)CC1)c1ccc(Cl)cc1 (stereo not drawn) + COc1c(OCCCN2CCOCC2)ccc2c3n(c(=NC(=O)c4cnc(N)nc4)nc12)CCN3	38.6
CC(Cn1ccc(-c2ccc(C#N)c(Cl)c2)n1)NC(=O)c1cc(C(C)O)[nH]n1 (stereo not drawn) + CC(Nc1ccc2c(c1)OCCn1cc(N3C(=O)OCC3C(F)F)nc1-2)C(N)=O	107

====

test system: 313798-341-R-J2-PDC spheroids, viability; assay: Anticancer human tumor 313798-341-R-J2-PDC cell line growth inhibition [PI3K]; conditions: curve of first compound; second compound 0.316 µM; spheroids with HUVEC and MSC;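 note: spheroids exposed to compounds for seven days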
endpoint: IC50

compound	value measured
C#Cc1c(F)ccc2cc(O)cc(-c3ncc4c(N5CC6CCC(C5)N6)nc(OCC56CCCN5CC(F)C6)nc4c3F)c12 (stereo unspecified) + CC(Nc1ncnc2nc[nH]c12)c1cc2cccc(Cl)c2c(=O)n1-c1ccccc1	> 10 µM
C=CC(=O)N1CCN(c2nc(=O)n(-c3c(C)ccnc3C(C)C)c3nc(-c4c(O)cccc4F)c(F)cc23)C(C)C1 (stereo unspecified) + CC(Nc1ncnc2nc[nH]c12)c1cc2cccc(Cl)c2c(=O)n1-c1ccccc1	> 10 µM
CNC(=O)c1ccc(N2C(=S)N(c3ccc(C#N)c(C(F)(F)F)c3)C(=O)C2(C)C)cc1F + Cc1nc(NC(=O)N2CCCC2C(N)=O)sc1-c1ccnc(C(C)(C)C(F)(F)F)c1	> 10 µM
Cn1ncnc1[C@H]1c2n[nH]c(=O)c3cc(F)cc(c23)N[C@@H]1c1ccc(F)cc1 + COc1c(OCCCN2CCOCC2)ccc2c3n(c(=NC(=O)c4cnc(N)nc4)nc12)CCN3	< 0.000316 µM
C#Cc1c(F)ccc2cc(O)cc(-c3ncc4c(N5CC6CCC(C5)N6)nc(OCC56CCCN5CC(F)C6)nc4c3F)c12 (stereo unspecified) + CC(Nc1ccc2c(c1)OCCn1cc(N3C(=O)OCC3C(F)F)nc1-2)C(N)=O	> 10 µM
Cn1nccc1Nc1nccc(-c2ccn(C(CO)c3ccc(Cl)c(F)c3)c(=O)c2)n1 (stereo unspecified) + CC(Nc1ncnc2nc[nH]c12)c1cc2cccc(Cl)c2c(=O)n1-c1ccccc1	> 10 µM

====

tested on: 313798-341-R-J2-PDC spheroids, viability; assay: Anticancer human tumor 313798-341-R-J2-PDC cell line growth inhibition [PI3K]; conditions: curve of first compound; second compound 0.316 µM; spheroids with HUVEC and MSC;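 note: spheroids exposed to compounds for seven days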
pIC50: −log10 of the molar value.
Each entry below carries its recorded pIC50.

compound	pIC50
CCCS(=O)(=O)Nc1ccc(F)c(C(=O)c2c[nH]c3ncc(-c4ccc(Cl)cc4)cc23)c1F + COc1c(OCCCN2CCOCC2)ccc2c3n(c(=NC(=O)c4cnc(N)nc4)nc12)CCN3	> 7.50
CC1(C)CCC(Nc2ncc(C(F)(F)F)c(-c3c[nH]c4c(P(C)(C)=O)c(C#N)ccc34)n2)CN1 (stereo unspecified) + CC(Nc1ncnc2nc[nH]c12)c1cc2cccc(Cl)c2c(=O)n1-c1ccccc1	> 7.50
CCN1CCN(Cc2ccc(Nc3ncc(F)c(-c4cc(F)c5nc(C)n(C(C)C)c5c4)n3)nc2)CC1 + Cc1nc(NC(=O)N2CCCC2C(N)=O)sc1-c1ccnc(C(C)(C)C(F)(F)F)c1	< 6.00
Cn1cnc2c(F)c(Nc3ccc(Br)cc3Cl)c(C(=O)NOCCO)cc21 + COc1c(OCCCN2CCOCC2)ccc2c3n(c(=NC(=O)c4cnc(N)nc4)nc12)CCN3	> 8.02
C=CC(=O)N1CCN(c2nc(=O)n(-c3c(C)ccnc3C(C)C)c3nc(-c4c(O)cccc4F)c(F)cc23)C(C)C1 (stereo unspecified) + Cc1nc(NC(=O)N2CCCC2C(N)=O)sc1-c1ccnc(C(C)(C)C(F)(F)F)c1	< 5.00
CC(Cn1ccc(-c2ccc(C#N)c(Cl)c2)n1)NC(=O)c1cc(C(C)O)[nH]n1 (stereo unspecified) + Cc1nc(NC(=O)N2CCCC2C(N)=O)sc1-c1ccnc(C(C)(C)C(F)(F)F)c1	< 5.00

====

Each entry below carries its recorded viability, T/C.
test system: 313798-341-R-J2-PDC spheroids, viability; experiment: Anticancer human tumor 313798-341-R-J2-PDC cell line growth inhibition [PI3K]; conditions: second compound 0.0316 µM; first compound 0.316 µM; stronger effect = lower value; spheroids with HUVEC and MSC;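 note: spheroids exposed to compounds for seven days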;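 for viability, T/C: 100% = DMSO vehicle control viability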
endpoint: viability, T/C (%)

molecule	value measured
Cn1ncc(Cl)c1-c1cc(C(=O)NC(CN)Cc2cccc(F)c2)sc1Cl (stereo unspecified) + CC(Nc1ncnc2nc[nH]c12)c1cc2cccc(Cl)c2c(=O)n1-c1ccccc1	73.1
CC1(C)CCC(CN2CCN(c3ccc(C(=O)NS(=O)(=O)c4ccc(NCC5CCOCC5)c([N+](=O)[O-])c4)c(Oc4cnc5[nH]ccc5c4)c3)CC2)=C(c2ccc(Cl)cc2)C1 + Cc1nc(NC(=O)N2CCCC2C(N)=O)sc1-c1ccnc(C(C)(C)C(F)(F)F)c1	104
CCN1CCN(Cc2ccc(Nc3ncc(F)c(-c4cc(F)c5nc(C)n(C(C)C)c5c4)n3)nc2)CC1 + COc1c(OCCCN2CCOCC2)ccc2c3n(c(=NC(=O)c4cnc(N)nc4)nc12)CCN3	90
C#Cc1c(F)ccc2cc(O)cc(-c3ncc4c(N5CC6CCC(C5)N6)nc(OCC56CCCN5CC(F)C6)nc4c3F)c12 (stereo unspecified) + CC(Nc1ccc2c(c1)OCCn1cc(N3C(=O)OCC3C(F)F)nc1-2)C(N)=O	109
C=CC(=O)N1CCN(c2nc(=O)n(-c3c(C)ccnc3C(C)C)c3nc(-c4c(O)cccc4F)c(F)cc23)C(C)C1 (stereo unspecified) + CC(Nc1ccc2c(c1)OCCn1cc(N3C(=O)OCC3C(F)F)nc1-2)C(N)=O	104
C=CC(=O)N1CCN(c2nc(=O)n(-c3c(C)ccnc3C(C)C)c3nc(-c4c(O)cccc4F)c(F)cc23)C(C)C1 (stereo unspecified) + COc1c(OCCCN2CCOCC2)ccc2c3n(c(=NC(=O)c4cnc(N)nc4)nc12)CCN3	91.4
CC(C)NCC(C(=O)N1CCN(c2ncnc3c2C(C)CC3O)CC1)c1ccc(Cl)cc1 (stereo unspecified) + CC(Nc1ccc2c(c1)OCCn1cc(N3C(=O)OCC3C(F)F)nc1-2)C(N)=O	82.2
CNC(=O)c1ccc(N2C(=S)N(c3ccc(C#N)c(C(F)(F)F)c3)C(=O)C2(C)C)cc1F + Cc1nc(NC(=O)N2CCCC2C(N)=O)sc1-c1ccnc(C(C)(C)C(F)(F)F)c1	92.3
C#Cc1c(F)ccc2cc(O)cc(-c3ncc4c(N5CC6CCC(C5)N6)nc(OCC56CCCN5CC(F)C6)nc4c3F)c12 (stereo unspecified) + CC(Nc1ncnc2nc[nH]c12)c1cc2cccc(Cl)c2c(=O)n1-c1ccccc1	99
CCCS(=O)(=O)Nc1ccc(F)c(C(=O)c2c[nH]c3ncc(-c4ccc(Cl)cc4)cc23)c1F + COc1c(OCCCN2CCOCC2)ccc2c3n(c(=NC(=O)c4cnc(N)nc4)nc12)CCN3	86.5
CC(C)NCC(C(=O)N1CCN(c2ncnc3c2C(C)CC3O)CC1)c1ccc(Cl)cc1 (stereo unspecified) + CC(Nc1ncnc2nc[nH]c12)c1cc2cccc(Cl)c2c(=O)n1-c1ccccc1	81.7
CCN1CCN(Cc2ccc(Nc3ncc(F)c(-c4cc(F)c5nc(C)n(C(C)C)c5c4)n3)nc2)CC1 + CC(Nc1ncnc2nc[nH]c12)c1cc2cccc(Cl)c2c(=O)n1-c1ccccc1	96
Cn1ncc(Cl)c1-c1cc(C(=O)NC(CN)Cc2cccc(F)c2)sc1Cl (stereo unspecified) + CC(Nc1ccc2c(c1)OCCn1cc(N3C(=O)OCC3C(F)F)nc1-2)C(N)=O	84.5
CNC(=O)c1ccc(N2C(=S)N(c3ccc(C#N)c(C(F)(F)F)c3)C(=O)C2(C)C)cc1F + CC(Nc1ccc2c(c1)OCCn1cc(N3C(=O)OCC3C(F)F)nc1-2)C(N)=O	102
CC1(C)CCC(CN2CCN(c3ccc(C(=O)NS(=O)(=O)c4ccc(NCC5CCOCC5)c([N+](=O)[O-])c4)c(Oc4cnc5[nH]ccc5c4)c3)CC2)=C(c2ccc(Cl)cc2)C1 + CC(Nc1ncnc2nc[nH]c12)c1cc2cccc(Cl)c2c(=O)n1-c1ccccc1	107
CC(Cn1ccc(-c2ccc(C#N)c(Cl)c2)n1)NC(=O)c1cc(C(C)O)[nH]n1 (stereo unspecified) + Cc1nc(NC(=O)N2CCCC2C(N)=O)sc1-c1ccnc(C(C)(C)C(F)(F)F)c1	97.6
